biological target: Urotensin-2 receptor (Homo sapiens); experiment: Bias factor, ratio of deltalog(Tau/KA) for agonist activity at human UT receptor expressed in HEK293 cells co-expressing beta-arrestin1-polycistronic BRET biosensor assessed as induction of beta-arrestin1 recruitment by luminescence detection based BRET assay to deltalog(Tau/KA) for agonist activity at human UT receptor expressed in HEK293 cells co-expressing Gq-polycistronic BRET biosensor assessed as induction of Gq activation by luminescence detection based BRET assay; assay type: functional, cell-based
Response field label takes met when fold change (FC) is strictly below 2 and not met in all other cases.

Would you kindly verify if fold change (FC) of CC(C)[C@H](NC(=O)[C@@H]1CSSC[C@H](NC(=O)[C@H](C)N)C(=O)N[C@@H](Cc2ccc(I)cc2)C(=O)N[C@@H](Cc2c[nH]c3ccccc23)C(=O)N[C@@H](CCCCN)C(=O)N[C@@H](Cc2ccc(O)cc2)C(=O)N1)C(=O)O is strictly less than 2?
not met

Would you kindly verify if fold change (FC) of CC(C)[C@H](NC(=O)[C@@H]1CSSC[C@H](NC(=O)[C@@H](C)N)C(=O)N[C@@H](Cc2ccc(I)cc2)C(=O)N[C@@H](Cc2c[nH]c3ccccc23)C(=O)N[C@@H](CCCCN)C(=O)N[C@@H](Cc2ccc(O)cc2)C(=O)N1)C(=O)O is strictly less than 2?
not met

Would you kindly verify if fold change (FC) of CC(C)[C@H](NC(=O)[C@@H]1CSSC[C@H](NC(=O)[C@@H](C)N)C(=O)N[C@@H](Cc2ccc(-c3ccccc3)cc2)C(=O)N[C@@H](Cc2c[nH]c3ccccc23)C(=O)N[C@@H](CCCCN)C(=O)N[C@@H](Cc2ccc(O)cc2)C(=O)N1)C(=O)O is strictly less than 2?
not met

Would you kindly verify if fold change (FC) of CC(C)[C@H](NC(=O)[C@@H]1CSSC[C@H](NC(=O)[C@@H](N)CC(=O)O)C(=O)N[C@@H](Cc2ccc(I)cc2)C(=O)N[C@@H](Cc2c[nH]c3ccccc23)C(=O)N[C@@H](CCCCN)C(=O)N[C@@H](Cc2ccc(O)cc2)C(=O)N1)C(=O)O is strictly less than 2?
met

More entries:
Would you kindly verify if fold change (FC) of CC(C)[C@H](NC(=O)[C@@H]1CSSC[C@H](NC(=O)[C@@H](C)N)C(=O)N[C@@H](Cc2ccc(C#Cc3ccccc3)cc2)C(=O)N[C@@H](Cc2c[nH]c3ccccc23)C(=O)N[C@@H](CCCCN)C(=O)N[C@@H](Cc2ccc(O)cc2)C(=O)N1)C(=O)O is strictly less than 2?
not met
